Assay: Cell Viability - LYMP1-002 - Assay at 16 hr (AID 948)
Setup Conditions: LYMP1-002 lymphoblastoid cell viability; series mostly up to 92.2 µM
Records with an inconclusive call do not appear. The source made the active and inactive calls. Calls follow the shape of the dose curve; as a rule, active = well fitted cell-killing curve with a large enough effect; inconclusive = small, poorly fitted or top-dose-only effect; inactive = flat fitted curve, though single readings scatter.
Possible outcomes: active, inactive

- Oc1cc(Cl)c(Cl)cc1Cl: inactive
- NNC(N)=O: inactive
- C[C@]12CCC(=O)C[C@@H]1CC[C@@H]1[C@@H]2CC[C@]2(C)[C@@H](O)CC[C@@H]12: inactive
- [Cl-].[Cl-].[Hg+2]: active
- CC(C)Nc1ccc(Nc2ccccc2)cc1: active
- C[C@H]1CCC[C@H](O)CCCCCc2cc(O)cc(O)c2C(=O)O1: inactive
- CCCCCl: inactive
- O=[N+]([O-])c1ccccc1: inactive
- CC(C)CCON=O: inactive
- ClC(Cl)(Cl)Cl: inactive
- ClC=C(Cl)Cl: inactive
- CC(C)(C)c1cc(O)ccc1O: inactive
- Clc1ccccc1Cl: inactive
- CCOC(=O)c1ccccc1C(=O)OCC: inactive
- O=CC=O: inactive
- CCCCCCCCOC(=O)c1ccccc1C(=O)OCCCCCCCC: inactive

###

Test system: CP237
Assay: qHTS profiling for inhibitors of Plasmodium falciparum proliferation (AID 504749); also: nearly all actives have a fitted effect of over 60% in size
Setup Conditions: P. falciparum in erythrocytes, SYBR Green DNA, 72 h; series mostly up to 28.7 µM
Records with an inconclusive call do not appear. Calls of active or inactive are those of the source. Calls come from the whole dose curve; as a rule, active = well fitted inhibition curve with a large enough effect; inconclusive = small, poorly fitted or top-dose-only effect; inactive = flat fitted curve, though single readings scatter.
Possible outcomes: Y = active, N = inactive

- CC(=O)O[C@H]1CC[C@H]2[C@@H]3CCC4=CC(=O)CCC4=C3C=C[C@]12C: N
- O=C1C2CC=CCC2C(=O)N1SC(Cl)(Cl)Cl (stereo not drawn): N
- CCCCNCC(O)c1ccc(O)cc1 (stereo not drawn): N
- NCC(O)c1cccc(O)c1 (stereo not drawn): N
- ClCC1CO1 (stereo not drawn): N
- CCC1(c2ccccc2)C(=O)NC(=O)NC1=O: N
- CCCC(=O)OC(C(Cl)(Cl)Cl)P(=O)(OC)OC (stereo not drawn): N
- C/C(=C\c1csc(C)n1)[C@@H]1C[C@@H]2O[C@]2(C)CCC[C@H](C)[C@H](O)[C@@H](C)C(=O)C(C)(C)[C@@H](O)CC(=O)O1: Y
- Clc1ccc(Cl)cc1: N
- c1ccc2cc(CC3=NCCN3)ccc2c1: N
- FC(F)OC(F)(F)C(F)Cl (stereo not drawn): N
- CC[N+](C)(CC)CCOC(=O)C(O)(c1ccccc1)c1ccccc1: N
- C=CCN=C=S: N

###

Tested System: Phenylethanolamine N-methyltransferase (Homo sapiens)
Assay: Confirmatory Screen for Target Class Profiling of Small Molecule Inhibitors of Methyltransferases (AID 1745852)
Setup Conditions: MTase-Glo luminescence, SAH detection, recombinant enzyme; measured here: PNMT max response; stronger effect = lower value
# activity per record follows
Assay Endpoint: activity (%)

* C[C@@H]1[C@@H]2Cc3ccc(O)cc3[C@@]1(C)CCN2CC1CC1 | 4.55
* CN(N=O)c1ccc(O)c(O)c1 | -27.8
* CCCN1CCc2cccc3c2[C@H]1Cc1ccc(O)c(O)c1-3 | 6.46
* CN1CC[C@@]2(C)c3cc(O)ccc3N(C)C12 (some centres not stated) | -16.3
* CCCN(CCC)CCc1ccc(O)c(O)c1 | -0.0665
* N#C/C(=C/c1ccc(O)c(O)c1)C(N)=S | 1.47
* CCCCCOc1cc2c(cc1-c1cc(/C=C/C(=O)O)ccc1O)C(C)(C)CCC2(C)C | 0.0952

###

# Potency per record follows
Assay: Drug repurposing screens with cells derived from glioblastoma tumor samples (AID 1345199); also: potency is read from the fitted curve at half-maximal effect; nearly all actives have a fitted effect of over 40% in size
Setup Conditions: GBM patient neurospheres viability, ATP luminescence, 48 h; tumour line A
Inconclusive results are not listed. Active and inactive are the calls of the source. Calls follow the shape of the dose curve; as a rule, active = well fitted inhibition curve with a large enough effect; inconclusive = small, poorly fitted or top-dose-only effect; inactive = flat fitted curve, though single readings scatter.
Assay Endpoint: Potency

• O=[N+]([O-])c1ccc(F)c([N+](=O)[O-])c1 = 20 µM (active)
• C=CC[C@]1(O)CC[C@H]2[C@@H]3CCC4=CCCC[C@@H]4[C@H]3CC[C@@]21C = 12.6 µM (active)
• CCCCCCCCCC(=O)O[C@H]1CC[C@H]2[C@@H]3CCC4=CC(=O)CC[C@]4(C)[C@H]3CC[C@]12C = 15.8 µM (active)

###

System: Nanoluciferase (engineered Oplophorus gracilirostris luciferase)
Assay: Primary Nanoluciferase (NLuc) qHTS assay for identification of artifact compounds. (AID 1845222);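 also: NLuc secreted into diluted conditioned medium of S16 cells; 0% = DMSO and -100% = no enzyme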
Setup Conditions: NLuc-conditioned medium, Nano-Glo luminescence, 5 min; series mostly up to 54.1 µM
Calls of active or inactive are those of the source. Calls follow the shape of the dose curve; as a rule, active = well fitted inhibition curve with a large enough effect; inconclusive = small, poorly fitted or top-dose-only effect; inactive = flat fitted curve, though single readings scatter.
Assay Endpoint: activity, negative = inhibition

• C/C=C(\C)C(=O)OC1CC2C(CC=C3CC(OC4CC(OC)C(OC5CC(OC)C(OC6OC(C)C(OC7OC(CO)C(O)C(O)C7O)C(OC)C6O)C(C)O5)C(C)O4)CCC32C)C2(O)CCC(C(C)=O)C12C (stereo not drawn) = 4.82% [at 11.6 µM] (inactive)
• C=C(C)[C@H]1O[C@H]2CC[C@@]3(C)[C@@](O)(CC[C@H]4[C@@H]5OC(C)(C)[C@H]6C[C@@H]7C(=C)Cc8c(Cl)cc9[nH]c(c5c9c8[C@@]76O)[C@@]43C)[C@]23O[C@@H]3[C@H]1O = inactive
• CC[C@H]1CN2CC[C@H]1C[C@@H]2[C@@H](O)c1ccnc2ccc(OC)cc12 = inactive

###

Tested on: HaCat
Assay: Cytotoxic Profiling of Annotated Libraries Using Quantitative High-Throughput Screening (AID 1296008); also: nearly all actives have a fitted effect of over 60% in size
Setup Conditions: Five cell lines viability, CellTiter-Glo ATP luminescence, 48-72 h
Method: Cell-based phenotypic screening is a commonly used approach to discover biological pathways, novel drug targets, chemical probes and high-quality hit-to-lead molecules. […] A pintool (Kalypsys) was used to transfer 23 nL of compound solution to the 1536-well assay plates. […] Plates were left at room temperature for 10 min before imaging the ATP-coupled luminescence using a ViewLux microplate imager (PerkinElmer, Waltham, MA).
Inconclusive results are not listed. The source made the active and inactive calls. Calls follow the shape of the dose curve; as a rule, active = well fitted inhibition curve with a large enough effect; inconclusive = small, poorly fitted or top-dose-only effect; inactive = flat fitted curve, though single readings scatter.
Possible outcomes: active, inactive

* COC1CC(O[C@H]2CC[C@]3(C=O)C4CC[C@]5(C)[C@@H](C6=CC(=O)OC6)CC[C@]5(O)[C@@H]4CC[C@]3(O)C2)OC(C)C1O[C@@H]1O[C@H](CO)[C@@H](O)[C@H](O)[C@H]1O (stereo not given in full) | active
* COC1CC(O[C@H]2CC[C@@]3(C)C(=CCC4C3C(O)[C@@H](O)[C@]3(C)[C@@H](C(C)=O)CC[C@]43O)C2)OC(C)C1OC1CC(OC)C(OC2OC(C)C(O)C(O)C2O)C(C)O1 (stereo not given in full) | inactive
* COC1C(O)C(C)OC(OC2C(CO)O[C@@H](O[C@@H]3CC4CCC5C(CC[C@]6(C)[C@@H](C7=CC(=O)OC7)CC[C@]56O)[C@@]4(C)[C@H](O)C3)C(O)C2O)C1O (stereo not given in full) | active
* COC1CC(OC2CCC3(C=O)C(CCC4C3CCC3(C)C(C5=CC(=O)OC5)CCC43O)C2)OC(C)C1OC1OC(CO)C(O)C(O)C1O (stereo not given) | active
* C=CC(C)(O)CC/C=C(\C)C(=O)O[C@H]1[C@H](O)[C@@H](CO)O[C@@H](OC(=O)[C@]23CCC(C)(C)CC2C2=CCC4[C@@]5(C)CC[C@H](O[C@@H]6O[C@H](CO[C@@H]7OC[C@H](O)[C@H](O)[C@H]7O[C@@H]7OC[C@@H](O)[C@H](O)[C@H]7O)[C@@H](O)[C@H](O)[C@H]6O)C(C)(C)C5CC[C@@]4(C)[C@]2(C)CC3)[C@@H]1OC1OC(C)C(O[C@@H]2OC[C@@H](O)[C@H](O[C@@H]3OC[C@@H](O)[C@H](O)[C@H]3O)[C@H]2O)C(O)C1O (stereo not given in full) | inactive
* C[C@H]1O[C@@H](O[C@H]2C[C@@H](O)[C@]3(CO)C4C(CC[C@]3(O)C2)[C@@]2(O)CC[C@H](C3=CC(=O)OC3)[C@@]2(C)C[C@H]4O)[C@@H](O)[C@@H](O)[C@H]1O (stereo not given in full) | active
* Clc1ccc(OCC2=NCCN2)cc1Cl | inactive
* Cc1cccc(NC(=O)N[C@@H]2N=C(c3ccccc3)c3ccccc3N(C)C2=O)c1 | inactive
* COC1=CC(=O)O[C@@H](/C=C/c2ccccc2)C1 | inactive
* CC12CCC3C(CCC4(O)CC(O)CCC34C=O)C1(O)CCC2C1=CC(=O)OC1 (stereo not given) | active
* C[C@H]1C(=O)O[C@H]2[C@H](O)[C@]34C5OC(=O)[C@]3(O[C@@H]3OC(=O)[C@H](O)C34[C@H](C(C)(C)C)[C@H]5O)C12O (stereo not given in full) | inactive
* C/C=C(\C)C(=O)OC1C(C)OC(OC2C(C)OC(OC3CCC4(C)C(=CCC5C4CCC4(C)C(C(C)OC6OC(COC7OC(CO)C(O)C(O)C7O)C(O)C(O)C6O)CCC54O)C3)CC2OC)C(O)C1OC (stereo not given) | inactive
* COC1CC(=O)C23C(=O)NC(CC(C)C)C2C(C)=C(C)C(OO)C3/C=C(\C)CCC(O)C1O (stereo not given) | inactive
* OCCCCC#Cc1cncc(OC[C@@H]2CCN2)c1 | inactive
* CC(C)(C)c1cc(C(C)(C)C)c2c(c1)C(O)(C(F)(F)F)C(=O)O2 (stereo not given) | inactive
* CN(C)CCc1c[nH]c2ccc(CN3CCN(C)S3(=O)=O)cc12 | inactive
* COC1CC(OC2CCC3(C)C(CCC4C3CCC3(C)C(C5=CC(=O)OC5)C(OC(C)=O)CC43O)C2)OC(C)C1OC1OC(CO)C(O)C(O)C1O (stereo not given) | active
* CCCCCCn1c(=O)c(C(=O)Nc2ccc(C(=O)OCCC)cc2)c(O)c2ccccc21 | inactive
* CN[C@H]1[C@H](O)[C@H](O[C@@H]2[C@@H](O)[C@H](O[C@H]3O[C@H]([C@H](C)O)[C@@H](O)[C@H](O)[C@H]3N)[C@@H](N)C[C@H]2N)OC[C@@]1(C)O | inactive
* CO[C@@H]1[C@H](O)[C@@H](O[C@@H]2C[C@H]3CC[C@@H]4C(CC[C@]5(C)[C@@H](C6=CC(=O)OC6)CC[C@]45O)[C@@]3(C)[C@H](O)C2)O[C@H](C)[C@@H]1O[C@@H]1O[C@H](CO)[C@@H](O)[C@H](O)[C@H]1O (stereo not given in full) | active
* C[C@@]1(C(=O)O)CC[C@]2(C)CC[C@]3(C)C4=CC(=O)c5cc(O)c(O)cc5[C@]4(C)CC[C@@]3(C)[C@@H]2C1 | inactive
* C[C@@H]1C(=O)O[C@H]2[C@H](O)[C@@]34[C@@H]5OC(=O)[C@@]3(O[C@@H]3OC(=O)[C@@H](O)[C@@]34[C@H](C(C)(C)C)[C@H]5O)[C@@]12O | inactive
* COC1CC(OC2CCC3(C)C(=CCC4C3CCC3(C)C(C(C)OC5OC(COC6OC(CO)C(O)C(O)C6O)C(O)C(O)C5O)CCC43O)C2)OC(C)C1OC1OC(C)C(O)C(OC)C1O (stereo not given) | inactive
* CC[C@H]1CN2CC[C@H]1C[C@@H]2[C@@H](O)c1ccnc2ccc(OC)cc12 | inactive
* COC1C(O)C(OC2CCC3(C=O)C(CCC4C3CCC3(C)C(C5=CC(=O)OC5)CCC43O)C2)OC(C)C1OC1OC(CO)C(O)C(O)C1O (stereo not given) | active
